The reported numbers originate from a melting point compilation (Tetko et al.).

Value Kind: melting point

> print(dat)
                                    compound  recorded.value
 1              Nc1c(C(=O)c2ccco2)oc2ccccc12   180 to 182 °C
 2             COc1ccccc1-c1ncc(C(=O)O)[nH]1   219 to 221 °C
 3                               Cc1nnc(N)o1   183 to 185 °C
 4          Cc1cccn2cc(COc3ccccc3C(=O)O)nc12   199 to 201 °C
 5                       Cc1ncc(CN2CCNCC2)s1     79 to 81 °C
 6                                  CCC(N)=S     40 to 42 °C
 7  O=C(O)C1CC1c1cccc(Cl)c1 (stereo unspecified)     89 to 91 °C
 8         CSc1ccc(CNc2ccc3[nH]c(C)nc3c2)cc1   172 to 174 °C
 9  CCCS(=O)(=O)Nc1ccccc1C(C)NC (stereo unspecified)     58 to 60 °C
10                    O=C(O)CCCOc1ccc(Cl)cc1   114 to 116 °C
11              NS(=O)(=O)c1ccc(NCC(=O)O)cc1   239 to 241 °C
12              S=c1[nH][nH]c(=NCCc2cccs2)s1     82 to 84 °C
13  O=C(O)CN(Cc1ccccc1)S(=O)(=O)c1ccc(Cl)cc1   149 to 151 °C
14                     COc1cc(C#N)ccc1OC(F)F     47 to 51 °C
15                     NC(=O)COc1cccc(CCl)c1   114 to 116 °C
16                     Cc1cc(Oc2cnccn2)ccc1N   125 to 127 °C
17          CNc1nc(-c2ccccc2[N+](=O)[O-])cs1   139 to 141 °C
18                  O=C(O)c1ccc2ccc(Cl)cc2n1   179 to 181 °C
19                  COc1ccc(-c2nc(CN)cs2)cc1     67 to 69 °C
20                NCc1ccc(NC(=O)c2cccnc2)cc1   137 to 139 °C
21                       O=C(CCl)NC1CCCCCCC1     82 to 84 °C
22                     Nc1ccc2c(c1)CCC(=O)N2   170 to 172 °C
23                O=S(=O)(O)c1ccc2[nH]cnc2c1   359 to 361 °C
24  COc1ccc(S(=O)(=O)N2CCc3ccccc32)cc1C(=O)O   136 to 138 °C
25                           NC(=S)c1ccccc1O   118 to 120 °C
26  CC(CC(=O)O)C1CCNCC1 (stereo unspecified)   255 to 257 °C
27                     Nc1ccc2c(c1)NC(=O)CS2   218 to 222 °C
28         NS(=O)(=O)c1c(F)cccc1[N+](=O)[O-]   163 to 165 °C
29                  Fc1cccc(Cn2cc(Br)cn2)c1F     53 to 55 °C
30                    CC(=O)c1ccc(N(C)C)cc1O   120 to 122 °C
31               O=C(CCCl)N1CCN(c2ccccn2)CC1     97 to 99 °C
32                   CCNS(=O)(=O)c1cccc(F)c1     49 to 51 °C
33            O=c1[nH]nc(N2CCNCC2)c(=O)[nH]1   150 to 152 °C
34                    CC[C@@H](CO)NCc1ccccc1     73 to 75 °C
35                  Cc1nc2c(cnn2C)c(=O)[nH]1   274 to 276 °C
36       Nc1nc2nc(-c3ccccc3)cc(C(F)(F)F)c2s1   234 to 236 °C
37                 N#CC1(c2cccc(Br)c2)CCOCC1     90 to 92 °C
38            O=C(O)c1ccc(=O)n(-c2ccccc2F)n1   199 to 201 °C
39          CC(C)(C)OC(=O)Nc1ccc(C(=O)O)cc1O   179 to 181 °C
40                Nc1cccc(C(=O)NCc2ccccn2)c1   119 to 121 °C
41     CC(C)c1cnc(-c2ccc([N+](=O)[O-])cc2)o1   103 to 105 °C
42                      OCc1ncn(-c2ccccc2)n1   109 to 111 °C
43       COc1cc(NC(=O)c2ccco2)c(C(=O)O)cc1OC     88 to 90 °C
44                       O=C1COc2cccc(F)c2N1   172 to 174 °C
45                         NNC(=O)NCC(F)(F)F     68 to 70 °C
46             O=S(=O)(Cl)c1csc(-c2ccccc2)n1     86 to 88 °C
47                       CCNc1cc(C(=O)O)ccn1   291 to 293 °C
48                CC(C)(O)c1cn(-c2ccccc2)nn1     89 to 91 °C
49                NCc1cccc(NC(=O)Cn2cccn2)c1   113 to 115 °C
50         Cc1ccc2c(c1)C(=O)N(CCCC(=O)O)C2=O   239 to 241 °C
51  O=C(O)c1ccc(Oc2cccc(F)c2[N+](=O)[O-])c(Cl)c1   169 to 171 °C
52                        CNc1ncc(C(=O)OC)s1   115 to 117 °C
53  CC(=O)c1cccc(NC(=O)C(C)Cl)c1 (stereo unspecified)   111 to 113 °C
54                Nc1nnc(-c2cccc(Br)c2)[nH]1   219 to 221 °C
55                   Cc1ccc2nc(CO)cc(=O)n2c1   171 to 173 °C
56            Cc1cc(CC#N)c(C)n1-c1ccc(Cl)cc1     74 to 76 °C
